system under test: T1, huCD33-R69 stably expressed on Jurkat cells (human, UniProt P20138 18-364)
T1 construct: whole, on cells; >200,000 receptors per cell; also called CD33 WT; CD33^ARG69
T1 sequence (P20138 18-364): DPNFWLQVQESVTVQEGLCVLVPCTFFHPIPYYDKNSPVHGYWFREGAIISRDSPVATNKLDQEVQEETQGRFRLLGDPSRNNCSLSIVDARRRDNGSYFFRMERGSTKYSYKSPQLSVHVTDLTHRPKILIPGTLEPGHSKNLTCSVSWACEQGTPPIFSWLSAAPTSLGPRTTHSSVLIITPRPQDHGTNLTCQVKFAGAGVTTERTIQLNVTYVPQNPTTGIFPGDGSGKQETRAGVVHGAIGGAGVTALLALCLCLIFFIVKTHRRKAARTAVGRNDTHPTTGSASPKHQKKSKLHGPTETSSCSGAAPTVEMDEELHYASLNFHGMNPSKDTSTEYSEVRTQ
assay summary: FACS on cells;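 also: fixed Jurkat cells bearing either CD33 variant, barcoded by dye, exposed to myc-tagged scFv periplasmic extracts, detected with anti-myc PE antibody and read by flow cytometry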
Below: a set of entries, each annotated with reported geometric mean MFI fold change over Jurkat parental.
measure: geometric mean MFI fold change over Jurkat parental

binder | val
Polypeptide No. 22 (scFv, V domains shown, scFv) VH: QVQLVQSGAEVKKPGASVKVSCKASGYTFTDYYIHWVRQAPGQGLEWMGWINPNSGGTNYAQEFQGRVTMTRDTSTSTVYMELSSLRSEDTAVYYCARDHRIAVAGSYFDYWGQGTLVTVSS VL: DIQMTQSPSSLSASVGDRVTITCRASRSIRTWLAWYQQKPGKAPKLLIYAASSLQTGVPSRFSGSGSGTDFTLTISSLQPEDFATYYCQQSYSTPYTFGQGTKLEIKR | 2 to 10 fold
Polypeptide No. 23 (scFv, V domains shown, scFv) VH: QVQLVQSGAEVKKPGASVKVSCKASGYPFTAHYIHWVRQAPGQGLEWMGWINPNSGGTNYAQKFQGRVTMTRDTSTSTVYMELSSLRSEDTAVYYCARDVEMATIGAYWYFDLWGRGTLVTVSS VL: DIQMTQSPSSLSASVGDRVTITCRASQGINNWLAWYQQKPGKAPKLLIYDASNLETGVPSRFSGSGSGTDFTLTISSLQPEDFATYYCQQANSFPPTFGQGTKLEIKR | 2 to 10 fold
Polypeptide No. 19 (scFv, V domains shown, scFv) VH: EVQLLESGGGLVQPGGSLRLSCAASGFTFSSYWMHWVRQAPGKGLEWVSGFSGSARTYYADSVKGRFTISRDNSKNTLYLQMNSLRAEDTAVYYCAREWSGFDYWGQGTLVTVSS VL: DIQMTQSPSSLSASVGDRVTITCRASQNIGPWLAWYQQKPGKAPKLLIYDAKDLHPGVPSRFSGSGSGTDFTLTISSLQPEDFATYYCQQANTFPMTFGQGTRLEIKR | > 30 fold
Polypeptide No. 9 (scFv, V domains shown, scFv) VH: QVQLVQSGAEVKKPGSSVKVSCKASGGTFSSDAINWVRQAPGQGLEWMGGFDPEDGETIYAQKFQGRVTITADESTSTAYMELSSLRSEDTAVYYCARGPSGYDFEFDYWGQGTLVTVSS VL: DIQMTQSPSSLSASVGDRVTITCRSSRNISHWLAWYQQKPGKAPKLLIYKASSLESGVPSRFSGSGSGTDFTLTISSLQPEDFATYYCQQAISFPLTFGGGTKVEIKR | 2 to 10 fold
Polypeptide No. 33 (scFv, V domains shown, scFv) VH: QVQLVQSGAEVKKPGASVKVSCKASGYTFTSYYMHWVRQAPGQGLEWMGIIDPSGGSTNYAQKFQGRVTMTRDTSTSTVYMELSSLRSEDTAVYYCARDYYGSGSYYGLDYWGRGTLVTVSS VL: DIQMTQSPSSLSASVGDRVTITCRASQGISNNLNWYQQKPGKAPKLLIYDASNLETGVPSRFSGSGSGTDFTLTISSLQPEDFATYYCQQANSFPLTFGPGTKVDIKR | < 2 fold
Polypeptide No. 31 (scFv, V domains shown, scFv) VH: QVQLVQSGAEVKKPGSSVKVSCKASGGTFSTYAITWVRQAPGQGLEWMGGIIPIVGRANYAQKFQGRVTITADESTSTAYMELSSLRSEDTAVYYCARSGGHDLDYWGQGTLVTVSS VL: DIQMTQSPSSLSASVGDRVTITCRASQGIGNDLGWYQQKPGKAPKLLIYGASSVQSGVPSRFSGSGSGTDFTLTISSLQPEDFATYYCQQSYSTPITFGQGTRLEIKR | < 2 fold
Polypeptide No. 35 (scFv, V domains shown, scFv) VH: QVQLVQSGAEVKKPGASVKVSCKASGYTFTDYYMHWVRQAPGQGLEWMGIINPSGGSTRYAQKFQGRVTMTRDTSTSTVYMELSSLRSEDTAVYYCARVDGRRWLRSDYWGQGTLVTVSS VL: DIQMTQSPSSLSASVGDRVTITCRASQGIRNDLAWYQQKPGKAPKLLIYAASTLQNGVPSRFSGSGSGTDFTLTISSLQPEDFATYYCQQSYSTPWTFGQGTKVEIKR | < 2 fold
Polypeptide No. 12 (scFv, V domains shown, scFv) VH: EVQLLESGGGLVQPGGSLRLSCAASGFTFSSHWMSWVRQAPGKGLEWVSAISGSGGSTYYADSVKGRFTISRDNSKNTLYLQMNSLRAEDTAVYYCARDDNSGSQADWGQGTLVTVSS VL: DIQMTQSPSSLSASVGDRVTITCQASQDIDNYLNWYQQKPGKAPKLLIYDASNLETGVPSRFSGSGSGTDFTLTISSLQPEDFATYYCQQSYSTPLTFGGGTKLEIKR | 2 to 10 fold
Polypeptide No. 27 (scFv, V domains shown, scFv) VH: QVQLVQSGAEVKKPGASVKVSCKASGYTLTGYYMHWVRQAPGQGLEWMGWMNPSSGNTGYAQQFQGRVTMTRDTSTSTVYMELSSLRSEDTAVYYCARASSDRYYYDGVWYFDLWGRGTLVTVSS VL: DIQMTQSPSSLSASVGDRVTITCRASQDIRNNLGWYQQKPGKAPKLLIYGASSLQSGVPSRFSGSGSGTDFTLTISSLQPEDFATYYCQQTYSSPPTFGQGTKLEIKR | < 2 fold
Polypeptide No. 24 (scFv, V domains shown, scFv) VH: QVQLVQSGAEVKKPGSSVKVSCKASGYSFTSYGISWVRQAPGQGLEWLGWISAYNGNTNYGQSLQGRVTITADESTSTAYMELSSLRSEDTAVYYCARARGAGTFFDYWGQGTLVTVSS VL: DIVMTQSPLSLPVTPGEPASISCRSSQSLLHSNGYNYLDWYLQKPGQSPQLLIYDATNLPTGVPDRFSGSGSGTDFTLKISRVEAEDVGVYYCMQALQTPFTFGQGTKLEIKR | > 30 fold
